# Test system: MDA-MB-231 breast
# assayRemarks: NCI-60 one-dose screen, 48 h (100 = growth as untreated, 0 = no growth, -100 = all killed)
# studyConditions: 10 µM
# Method: Cells are grown in 96 well plates and exposed to the test compound for 48 hours. Compounds are tested at a single concentration, which is 10^-5 M for most compounds. The reported endpoint is percent growth (GI% or GIPRCNT), where numbers from 0 - 100% represent growth inhibition, and numbers from -100% - 0 represent cell death. For example, a value of 40 represents 60% growth inhibition. A value of 0 means no net growth occurred over the course of the experiment. […]
About 83,000 compounds went through this panel and 20% of them were active in at least one assay; those are over-represented in the sample as a whole.
measuredEndpoint: growth (%)
Write the value in % as a bare number.

Short answer for CC(C)(C)OC(=O)CN1CCc2c(sc3ncnc(N/N=C/c4cccc5ccccc45)c23)C1 : growth was 39.9

Data point: CC(C)(C)OC(=O)N1CCc2c(sc3ncnc(N/N=C/c4cccc(Br)c4)c23)C1 ; growth = 49.9

Entry COC1OC(COS(=O)OC)C(O)C(O)C1OS(=O)OC (configuration not stated) ; growth = 103

get_value(item= O=C1/C=C/[C@@H](O)[C@@H]2C[C@@H](O)C[C@H]2/C=C/CCC[C@H](CCc2ccc(C(F)(F)F)cc2)O1 , readout=growth) returns -84

growth for COc1ccc(C(=O)CSc2nc(-c3cc(OC)ccc3OC)cc(-c3ccc(OC)cc3)c2C#N)cc1 is 102

COc1ccc(-c2nn(-c3cccc(Cl)c3)cc2-c2cc(-c3cccs3)[nH]c(=S)n2)cc1 has a reported growth of 83.3

Form field growth, entry Cc1ccc(Cl)cc1NC(=O)CCl : 98.5

Notebook: CC(=O)Nc1ccc(CC[C@H]2CCC/C=C/[C@@H]3C[C@H](O)C[C@H]3[C@H](O)/C=C/C(=O)O2)cc1 , growth read as -88.4

For reference, reported growth for C#CC(C)(O)[C@@H]1C[C@H](CC(=O)O)C1(C)C (some centres not stated) stands at 113

// growth value for Cc1ccc2nc(Cl)c(-c3nc4ccccc4o3)cc2c1 : 91.4

Noted for COc1cc2c3c(n(C4CCN(C)CC4)c(=O)c2cc1OC)-c1cc2c(cc1C3=O)OCO2 : its growth reads 43.6

Memo: Fc1ccc2[nH]cc(-c3nc(-c4ccsc4)cs3)c2c1 , reported growth: 79.5

Item: CCCCN(CCCC)C(=O)[C@H](CC)[C@@H]1CC[C@@H](C)[C@@H]([C@H](C)[C@@H](O)[C@@H](C)C(=O)[C@H](CC)C2O[C@]3(C=C[C@@H](O)[C@]4(CC[C@@](C)([C@H]5CC[C@](O)(CC)[C@H](C)O5)O4)O3)[C@H](C)C[C@@H]2C)O1 (some centres not stated) | growth: -25.3

Form field growth, entry COc1ccc(-c2nn(-c3cccc(Cl)c3)cc2-c2c(C#N)c(=O)n3[nH]c(-c4ccccc4)nc3c2C#N)cc1 : 87.1

growth reported for this compound COc1ccc(-c2n[nH]nc2-c2cc(OC)c(OC)c(OC)c2)cc1 : 14.8

Measured growth, Cc1cc(Cl)ccc1Nc1nc(C(F)(F)F)ccc1C(=O)N/N=C/c1cccc(O)c1 : 39.7

Record summary for COc1ccc(/C=c2\sc3n(c2=O)C(c2cc(OC)c(OC)c(OC)c2)C=C(c2ccc(OC)c(OC)c2)N=3)cc1OC (configuration not stated) : reported growth = 85.5

So for NC(N)=N/N=C(\c1ccccc1)C(O)c1ccccc1 (configuration not stated) , the logged growth turned out to be 100

Documented growth of CCOc1ccccc1/C=N\N=C(\N)N/N=C/c1ccccc1OCC : 52.5

The compound identified as O=C(O)COc1c(Cl)cc([N+](=O)[O-])cc1Cl registered its growth at 117

// recorded growth for N#Cc1c(-c2ccc(Cl)cc2)csc1NC(=O)Nc1ccc(Cl)c(C(F)(F)F)c1 : 2.12

The compound CC(C)c1ccc(C(C)C(=O)N(CC2=C(C(C)c3ccccn3)c3ccccc3C2)C(C)C)cc1 (configuration not stated) showed growth equal to 48.4

Recorded result, CC(=O)C1CCC2C3CC=C4CC(SC(=N)N)CCC4(C)C3CCC12C (configuration not stated) , growth: 46.6

Kindly note the recorded growth for NS(=O)(=O)Oc1ccc(-c2ccc3sccc3c2)cc1 , which is 90

compound O=C1/C(=C/c2ccc3c(c2)OCO3)SC(=S)N1C1c2ccccc2Oc2ccccc21 , growth observed: 96

The compound identified as Oc1ccc(/C=N/N=C2c3ccccc3-c3ccccc32)c(O)c1 registered its growth at 48.3

Note to self: growth recorded for O=C(CC(CC(=O)c1ccccc1)c1ccccc1O)c1ccccc1 was 90.4

// growth lookup, compound = COc1ccc(/C=C/C(=O)C(=O)/C=C/c2ccc(OC)c(OC)c2)cc1OC , result: 2.99

Recorded growth (compound COc1ccc(C2=Cn3c(CCC(=O)c4nc5ccccc5[nH]4)nnc3SC2)cc1 ): 92.2

# growth of Cc1c[nH]c(=O)n(Cc2nnc(CCC(=O)c3nc4ccccc4[nH]3)o2)c1=O = 26.1

# growth of CCOC(=O)CC(S(=O)(=O)c1ccccc1)S(=O)(=O)c1ccccc1 = 109

Data point: CC(C)(C)OC(=O)N1CCc2c(sc3ncnc(N/N=C/c4cccc5ccccc45)c23)C1 ; growth = 45.6

The reported value for C[C@H]1[C@H](OC(=O)CCC(=O)O)O[C@@H]2O[C@]3(C)CC[C@H]4[C@H](C)CC[C@@H]1[C@@]24OO3 in terms of growth is 65.1

Record COc1ccc(C(=O)N/N=C/c2cc(C(F)(F)F)ccc2Cl)cc1 . Reported growth: 89.4

The recorded growth for COc1cccc(CNc2cccc3cn[nH]c23)c1O is 72.8

Entry CC1/C=C/C=C/C=C/C=C/C=C/C=C/C=C/C(O[C@@H]2O[C@H](C)[C@H](O)[C@@H](O)[C@@H]2N)CC(O)C(C(=O)O)C(O)CC(=O)CC(O)CC(O)CC(O)CC(=O)CCCC(=O)CC(=O)OC1C(C)CC(C)C(O)CC(=O)c1ccc(N)cc1 (some centres not stated) — recorded growth = -94.8

Looking up COc1ccc(-c2cc(-c3cc(OC)ccc3OC)nc(N)c2C#N)cc1 , I found its growth recorded as 56.3
